FYI, the data here is from paper PMC11823609.

Here the recorded MIC is given for each entry.
# Tested on: E. coli strain 264 (MLST 131, No ESBL)
# assay notes: microbe, parasite or virus in culture
# Assay type: cell-based
# condition context: Escherichia coli; E. coli 264; β-lactamase inhibitor alone; read-out: MIC
Your answer is read as µg/mL, so omit the unit and give the number.

Examples with their reported MIC follow.
compound	MIC / µg/mL
NC(=O)[C@@H]1CC[C@@H]2CN1C(=O)N2OS(=O)(=O)O [Avibactam, avibactam]	16
O=C(O)c1c(F)ccc2c1OB(O)[C@@H]1C[C@H]21 [Xeruborbactam, xeruborbactam]	32
O=C(NNC(=O)[C@@H]1CC[C@@H]2CN1C(=O)N2OS(=O)(=O)O)[C@@H]1CCCNC1 [Zidebactam, zidebactam]	0.12

Recorded result, NCCONC(=O)[C@@H]1CC[C@@H]2CN1C(=O)N2OS(=O)(=O)O [Nacubactam, nacubactam] , MIC: 1

Recorded result, CC1=C[C@@H]2CN(C(=O)N2OS(=O)(=O)O)[C@@H]1C(N)=O [Durlobactam, durlobactam] , MIC: 0.25

###

# Tested on: E. cloacae strain 281 (MLST 78, No ESBL)
# assay notes: microbe, parasite or virus in culture
# Assay type: cell-based
# condition context: Enterobacter cloacae; E. cloacae 281; β-lactamase inhibitor alone; read-out: MIC
observable: MIC (µg/mL)
Your answer is read as µg/mL, so omit the unit and give the number.

Examples with their reported MIC follow.
CC1=C[C@@H]2CN(C(=O)N2OS(=O)(=O)O)[C@@H]1C(N)=O 4
NC(=O)[C@@H]1CC[C@@H]2CN1C(=O)N2OS(=O)(=O)O 16
O=C(NNC(=O)[C@@H]1CC[C@@H]2CN1C(=O)N2OS(=O)(=O)O)[C@@H]1CCCNC1 0.25
O=C(O)c1c(F)ccc2c1OB(O)[C@@H]1C[C@H]21 32

# evaluate next
Recorded result, NCCONC(=O)[C@@H]1CC[C@@H]2CN1C(=O)N2OS(=O)(=O)O , MIC: 4

###

# System: E. coli strain 264 (MLST 131, No ESBL)
# assay notes: microbe, parasite or virus in culture
# Assay type: cell-based
# condition context: Escherichia coli; E. coli 264; BL alone or BL/BLI: AVI, REL, TAN, DUR 4 mg/L, VAB, XER 8 mg/L, ZID, NAC 1:1; read-out: MIC
Here the recorded MIC is given for each entry.
Your answer is read as µg/mL, so omit the unit and give the number.

Examples with their reported MIC follow.
C[C@@H](O)[C@H]1C(=O)N2C(C(=O)O)=C(S[C@@H]3CN[C@H](C(=O)N(C)C)C3)[C@H](C)[C@H]12 1
CC(C)(O/N=C(\C(=O)N[C@@H]1C(=O)N2C(C(=O)[O-])=C(C[n+]3ccccc3)CS[C@H]12)c1csc(N)n1)C(=O)O 0.25
C[C@@H](O)[C@H]1C(=O)N2C(C(=O)O)=C(SCCN=CN)C[C@H]12 0.5

Recorded result, CC1(C)[C@H](C(=O)O)N2C(=O)C[C@H]2S1(=O)=O , MIC: 64

###

# Tested on: E. coli TG1
# assay notes: microbe, parasite or virus in culture
# Assay type: cell-based
# condition context: Escherichia coli, BL alone or BL/BLI: AVI, REL, TAN, DUR 4 mg/L, VAB, XER 8 mg/L, ZID, NAC 1:1
observable: MIC

Recorded result, C[C@@H](O)[C@H]1C(=O)N2C(C(=O)O)=C(S[C@@H]3CN[C@H](C(=O)N(C)C)C3)[C@H](C)[C@H]12 [MER, meropenem] , MIC: ≤ 0.06 µg/mL

Recorded result, CC(C)(O/N=C(\C(=O)N[C@@H]1C(=O)N2C(C(=O)[O-])=C(C[n+]3ccccc3)CS[C@H]12)c1csc(N)n1)C(=O)O [CAZ, ceftazidime] , MIC: 0.25 µg/mL

Recorded result, CC1(C)[C@H](C(=O)O)N2C(=O)C[C@H]2S1(=O)=O [SUL, sulbactam] , MIC: 32 µg/mL

Recorded result, C[C@@H](O)[C@H]1C(=O)N2C(C(=O)O)=C(SCCN=CN)C[C@H]12 [IMP, imipenem] , MIC: ≤ 0.06 µg/mL

Recorded result, CO/N=C(\C(=O)N[C@@H]1C(=O)N2C(C(=O)[O-])=C(C[N+]3(C)CCCC3)CS[C@H]12)c1csc(N)n1 [FEP, cefepime] , MIC: ≤ 0.06 µg/mL

###

# Test system: E. coli strain 224 (MLST 127, No ESBL)
# assay notes: microbe, parasite or virus in culture
# Format: cell-based
# condition context: Escherichia coli; E. coli 224; BL alone or BL/BLI: AVI, REL, TAN, DUR 4 mg/L, VAB, XER 8 mg/L, ZID, NAC 1:1; read-out: MIC
observable: MIC (µg/mL)
Your answer is read as µg/mL, so omit the unit and give the number.

Examples with their reported MIC follow.
compound	target entity	recorded number
CC(C)(O/N=C(\C(=O)N[C@@H]1C(=O)N2C(C(=O)[O-])=C(C[n+]3ccccc3)CS[C@H]12)c1csc(N)n1)C(=O)O	E. coli strain 224 (MLST 127, No ESBL)	0.25
CC1(C)[C@H](C(=O)O)N2C(=O)C[C@H]2S1(=O)=O	E. coli strain 224 (MLST 127, No ESBL)	128
C[C@@H](O)[C@H]1C(=O)N2C(C(=O)O)=C(SCCN=CN)C[C@H]12	E. coli strain 224 (MLST 127, No ESBL)	2

Recorded result, CO/N=C(\C(=O)N[C@@H]1C(=O)N2C(C(=O)[O-])=C(C[N+]3(C)CCCC3)CS[C@H]12)c1csc(N)n1 [FEP, cefepime] , MIC: 0.5

Recorded result, C[C@@H](O)[C@H]1C(=O)N2C(C(=O)O)=C(S[C@@H]3CN[C@H](C(=O)N(C)C)C3)[C@H](C)[C@H]12 , MIC: 0.5

###

# target entity: OXA-48 (Klebsiella pneumoniae)
# Sequence (Q6XEC0 23-265 limits assumed): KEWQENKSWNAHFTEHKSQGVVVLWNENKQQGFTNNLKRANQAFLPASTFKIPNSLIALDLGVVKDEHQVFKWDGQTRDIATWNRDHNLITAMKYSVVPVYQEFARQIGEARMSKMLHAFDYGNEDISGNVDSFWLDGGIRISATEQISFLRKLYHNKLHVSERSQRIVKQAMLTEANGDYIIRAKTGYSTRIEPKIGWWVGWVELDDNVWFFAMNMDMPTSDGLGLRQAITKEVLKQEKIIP
# assay notes: Partition ratio / turnover number (tn), I/E for >90% inhibition
# Assay type: biochemical
# Design: These primers amplified the blaOXA-48 gene without the signal peptide; GST (glutathione S-transferase, pGEX-6P-1) (N, cleaved yes); made in house; host or cells: E. coli BL21
# condition context: 15 min incubation, 500 nM enzyme
observable: tn (partition ratio, I:E)
// return a plain number; no unit text

Examples with their reported tn (partition ratio, I:E) follow.
NCCN[C@H]1CC[C@H](CC(=O)N[C@H]2Cc3cccc(C(=O)O)c3OB2O)CC1 200
NCCONC(=O)[C@@H]1CC[C@@H]2CN1C(=O)N2OS(=O)(=O)O 70
O=C(O)c1c(F)ccc2c1OB(O)[C@@H]1C[C@H]21 1

# evaluate next
Recorded result, CC1=C[C@@H]2CN(C(=O)N2OS(=O)(=O)O)[C@@H]1C(N)=O , tn (partition ratio, I:E): 1

###

Here the recorded MIC is given for each entry.
# Tested on: E. coli HB4 ΔompC/F (CTX-M-14)
# assay notes: microbe, parasite or virus in culture
# Format: cell-based, Escherichia coli
# condition context: Escherichia coli
Report field: quantity (unit follows the number).

O=C(O)c1c(F)ccc2c1OB(O)[C@@H]1C[C@H]21 16 µg/mL
C[C@@H](O)[C@H]1C(=O)N2C(C(=O)O)=C(SCCN=CN)C[C@H]12 0.25 µg/mL
NCCONC(=O)[C@@H]1CC[C@@H]2CN1C(=O)N2OS(=O)(=O)O 2 µg/mL

# evaluate next
Recorded result, O=C(NNC(=O)[C@@H]1CC[C@@H]2CN1C(=O)N2OS(=O)(=O)O)[C@@H]1CCCNC1 , MIC: 0.5 µg/mL

###

# System: K. pneumoniae strain 497 (MLST 11, No ESBL)
# assay notes: microbe, parasite or virus in culture
# Assay type: cell-based
# condition context: Klebsiella pneumoniae; K. pneumoniae 497; BL alone or BL/BLI: AVI, REL, TAN, DUR 4 mg/L, VAB, XER 8 mg/L, ZID, NAC 1:1; read-out: MIC
observable: MIC

molecule	MIC
CC1(C)[C@H](C(=O)O)N2C(=O)C[C@H]2S1(=O)=O	128 µg/mL
CC(C)(O/N=C(\C(=O)N[C@@H]1C(=O)N2C(C(=O)[O-])=C(C[n+]3ccccc3)CS[C@H]12)c1csc(N)n1)C(=O)O	0.5 µg/mL
CO/N=C(\C(=O)N[C@@H]1C(=O)N2C(C(=O)[O-])=C(C[N+]3(C)CCCC3)CS[C@H]12)c1csc(N)n1 [FEP, cefepime]	0.5 µg/mL
C[C@@H](O)[C@H]1C(=O)N2C(C(=O)O)=C(S[C@@H]3CN[C@H](C(=O)N(C)C)C3)[C@H](C)[C@H]12	1 µg/mL

# evaluate next
Recorded result, C[C@@H](O)[C@H]1C(=O)N2C(C(=O)O)=C(SCCN=CN)C[C@H]12 , MIC: 4 µg/mL
